Target: serotonin 1A receptor (Rattus norvegicus, UniProt P19327)
Construct: To the receptor fraction of the hippocampus were added a test compound and 0.5 nM of [^3H]; 8-hydroxy-dipropylaminotetralin; from tissue; host or cells: rat hippocampus membrane fraction
Sequence (P19327 1-422): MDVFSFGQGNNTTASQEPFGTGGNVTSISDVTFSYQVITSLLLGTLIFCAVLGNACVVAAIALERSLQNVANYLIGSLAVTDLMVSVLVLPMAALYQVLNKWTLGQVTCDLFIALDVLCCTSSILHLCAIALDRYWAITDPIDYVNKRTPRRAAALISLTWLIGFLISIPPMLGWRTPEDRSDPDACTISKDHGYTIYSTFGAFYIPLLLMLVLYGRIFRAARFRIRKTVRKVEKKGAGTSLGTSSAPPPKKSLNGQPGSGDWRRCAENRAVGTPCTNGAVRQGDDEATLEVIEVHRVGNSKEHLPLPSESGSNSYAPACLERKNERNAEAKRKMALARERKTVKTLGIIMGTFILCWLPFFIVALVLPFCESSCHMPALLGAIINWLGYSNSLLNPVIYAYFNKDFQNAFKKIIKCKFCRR
Assay: Binding test on [3H] 8-hydroxy-dipropylaminotetralin, hippocampus receptor fraction
Design: species or system SD rats
Details: rat hippocampus receptor fraction, 0.5 nM [3H] 8-OH-DPAT, room temperature 30 min; read-out: 5HT1
Structures can show the parent of a compound that is named as a salt.
Please note: Ki exactly at 6 nM is 0 (no). Only values below 6 nM get 1 (yes).

Task: Quick check: does CCN1CCN(c2nc(-c3ccc(OCCOC)nc3)cc3ccsc23)CC1 [Example 269, hydrochloride] have Ki under 6 nM?
Result: 0 (no)

Task: Quick check: does CCN1CCN(c2nc(-c3ccc(S(=O)(=O)N4CCCC4)cc3)cc3ccccc23)CC1 [Example 356, dihydrochloride] have Ki under 6 nM?
Result: 1 (yes)

Task: Quick check: does CCN1CCN(c2nc(-c3ccc4c(c3)CCC4O)cc3ccccc23)CC1 (stereo not shown) have Ki under 6 nM?
Result: 1 (yes)

Task: Quick check: does CCCC(O)c1ccc(-c2cc3ccsc3c(N3CCN(CC)CC3)n2)cc1 (stereo not shown) [Example 446, dihydrochloride] have Ki under 6 nM?
Result: 0 (no)

Task: Quick check: does CCN1CCN(c2nc(-c3ccc(C(=O)NCCO)cc3)cc3ccccc23)CC1 [Example 346, dihydrochloride] have Ki under 6 nM?
Result: 0 (no)

Task: Quick check: does CCN1CCN(c2nc(-c3ccc([C@H]4CC[C@H](O)CC4)cc3)cc3ccccc23)CC1 [Example 398, Dihydrochloride] have Ki under 6 nM?
Result: 0 (no)

Task: Quick check: does CCN1CCN(c2nc(-c3ccc(CN4CCSCC4)cc3)cc3ccccc23)CC1 [Example 94, Hydrochloride] have Ki under 6 nM?
Result: 0 (no)
